assay: chemical genetic growth profiling, strain panel (AID 1159580);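 note: tested at 20 µM; growth read once vehicle control cultures reached saturation at 30 °C; 1 = growth at the plate median or of vehicle wells; lower values mean less growth of the strain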; conditions: S. cerevisiae deletion strains, growth OD, locus YMR129W, hits give low values
The campaign covered roughly 5,500 compounds. About 2,000 (36%) were called active. Roughly 18% stayed inconclusive and do not appear here. This is one part of the list.

Compound	normalized growth
C=C(CC)C(=O)c1ccc(OCC(=O)O)c(Cl)c1Cl	1.01
C1CNCCN1	1.01
CCCC(C)C1(CC)C(=O)NC(=O)NC1=O (stereo not drawn)	0.997
OC[C@@H](O)[C@@H](O[C@@H]1O[C@H](CO)[C@@H](O)[C@H](O)[C@H]1O)[C@H](O)[C@@H](O)CO	0.992
CC(=O)NCCCS(=O)(=O)O	1
O=C1CCCC2C3CC(CN12)[C@@H]1CCCCN1C3 (stereo partly drawn)	0.995
C1CCN2C[C@@H]3C[C@H](CN4CCCC[C@@H]34)[C@H]2C1	1.03
CC1(C)CCCC2(C)C3C1[C@@H](O)C2(C)C[C@H]3O (stereo partly drawn)	1.03
CS(=O)(=O)CCCCN=C=S	0.798
C=CCC1(C(C)CCC)C(=O)N=C(S)NC1=O (stereo not drawn)	0.978
CCCC(C)C1(CC)C(=O)N=C(S)NC1=O (stereo not drawn)	0.971
C1CCN2CC3CC(CN4CCCCC34)C2C1 (stereo not drawn)	1.03
Nc1ccc(S(=O)(=O)Nc2ccc(Cl)nn2)cc1	0.986

###

Below, each of the compounds is paired with its reported normalized growth value.
experiment: chemical genetic growth profiling, strain panel (AID 1159580);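 note: tested at 20 µM; growth read once vehicle control cultures reached saturation at 30 °C; 1 = growth at the plate median or of vehicle wells; lower values mean less growth of the strain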; conditions: S. cerevisiae deletion strains, growth OD, locus YDR318W, strain mcm21, hits give low values
Among all 5,500 compounds or so, about 2,000 (36%) were called active. About 18% were inconclusive and are not listed. Some of the results follow.

Compound	normalized growth
CCCc1occc(=O)c1/C=C/O	0.942
O=C(O[C@@H]1Cc2c(O)cc(O)cc2O[C@@H]1c1cc(O)c(O)c(O)c1-c1c([C@H]2Oc3cc(O)cc(O)c3C[C@H]2O)cc(O)c(O)c1O)c1cc(O)c(O)c(O)c1	0.61
CCC(Cc1c(I)cc(I)c(N)c1I)C(=O)O (centres undefined)	1
CC(C)N(C(=O)SCC(Cl)=C(Cl)Cl)C(C)C	1
CC(=O)Nc1ccc(S(=O)(=O)Nc2ccc([N+](=O)[O-])cc2)cc1	0.991
COc1cc2c(c(OC)c1OC)-c1ccc(OC)c(=O)cc1[C@@H](NC(C)=O)CC2	1.03
COc1cc2c(c(OC)c1OC)-c1ccc(O)c(=O)cc1[C@@H](NC(C)=O)CC2	0.94
O=C(OC1Cc2c(O)cc(O)cc2OC1c1cc(O)c(O)c(O)c1-c1c(C2Oc3cc(O)cc(O)c3CC2OC(=O)c2cc(O)c(O)c(O)c2)cc(O)c(O)c1O)c1cc(O)c(O)c(O)c1 (centres undefined)	0.995
CC(C)NCC(O)c1ccc2ccccc2c1 (centres undefined)	0.992

###

experiment: chemical genetic growth profiling, strain panel (AID 1159580);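 note: tested at 20 µM; growth read once vehicle control cultures reached saturation at 30 °C; 1 = growth at the plate median or of vehicle wells; lower values mean less growth of the strain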; conditions: S. cerevisiae deletion strains, growth OD, locus YOL136C, strain PFK27, hits give low values
The campaign covered roughly 5,500 compounds. About 2,000 (36%) were called active. Not shown: some 18% with an inconclusive outcome. The list shows a part of the results.
Friendly reminder: normalized growth below 0.9 is met, at or above is not met.

Molecule	Answer label
CSc1cc(-c2ccncc2)nc(-c2cccs2)c1	not met
C/C(=C\c1ccc2c(c1)OCO2)[N+](=O)[O-]	met
Cc1ccc(S(=O)(=O)CCSC2=CC(=O)CC(C)(C)S2)cc1	not met
O=[N+]([O-])c1cc(Br)cnc1Sc1nnc(SCC2CC2)s1	met
COc1ccc(C(=O)CSC2=NCCc3ccccc32)cc1	not met
O=C(NCc1ccncc1)c1ccc(-n2cccn2)cc1	not met
Cc1nn(Cc2ccc(C(=O)Sc3ccc(C(F)(F)F)cn3)o2)c(C)c1Br	met
Cn1c(CSCCOc2ccccc2)nnc1SCc1ccc(Cl)cc1Cl	not met
O=c1c(Cl)c(-n2cccn2)cnn1-c1ccc(Cl)cc1Cl	not met
CCOC(=O)C1=C(N)OC2=C(C(=O)CC(C)(C)C2)C1c1ccc(Cl)cc1Cl (centres undefined)	not met
O=C(c1ccc2ccccc2c1)N1CCN(c2ccnc3cc(Cl)ccc23)CC1	not met
N#CC(C#N)=C/C=C(/Sc1nc2ccccc2s1)c1ccc(Br)cc1	met
S=C(N/N=C\c1ccc(Cl)cc1)N/N=C\c1ccc(Cl)cc1	met
FC(F)(F)c1cccc(NNC(=S)Nc2ccccc2)c1	not met
CCOc1ccc(/C=C(\C)[N+](=O)[O-])cc1OC	met
C=CCOc1ccc(/C=C/[N+](=O)[O-])cc1	met
Cc1c(C)c(C)c(CSC(N)=Nc2ccc(F)cc2)c(C)c1C	not met
O=S(=O)(N/N=C\c1ccc(Cl)cc1)c1ccc(-c2ccccn2)s1	not met
N#CCC(=O)NNC(=S)Nc1ccc(Cl)c(Cl)c1	not met
CC(=O)Nc1ccc([N+](=O)[O-])cc1[N+](=O)[O-]	met
Cc1cccc(Cl)c1/C=N\NC(N)=S	not met
O=[N+]([O-])/C=C/c1ccc(F)cc1	met
O=C(c1ccccc1)c1cc(Cl)ccc1NC(=S)Nc1ccc(F)cc1	not met
O=C(NCCSCc1ccco1)Nc1cc(Cl)cc(Cl)c1	met
Cc1c2c(=O)[nH]ncc2c(-c2ccccc2)n1-c1ccc([N+](=O)[O-])cc1	not met
CC(=O)Nc1ccc(/C=C/[N+](=O)[O-])cc1	met
FC(F)(F)c1cccc(NC(=S)Nc2csc(C(F)(F)F)c2-c2ccccc2)c1	not met
